System: mevalonate kinase [Streptococcus pneumoniae D39]
Assay: pneumococcal mevalonate kinase activity blockers – biochemical, PK/LDH-coupled NADH absorbance, primary screen (AID 555)
Details: purified MK, PK/LDH-coupled NADH absorbance 340 nm; at 10 µM
Hit rate of the full screen: of about 65,000 compounds, about 320 (0.49%) were called active.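 Rule for the calls: active = ranked among the strongest by inhibition in the single 10 µM screen, a fixed top-ranked set picked for dose follow-up; inactive = the rest, inconclusive results apart.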 This excerpt belongs to a sample that is enriched for actives.
Your response should consist of one outcome taken from active, inactive

Worked cases, answers included:
compound | label-class
Cc1ccc(N2C(=O)CC(NCc3ccc4c(c3)OCO4)C2=O)cc1Cl (stereo not given) | inactive
Cc1ccc(S(=O)(=O)NCCN2CCOCC2)cc1C | inactive
C=CCOC(=O)C1=C(C)OC(N)=C(C#N)C1c1ccc(F)cc1 (stereo not given) | inactive

Okay, now this compound:
Per the assay record, what outcome was assigned to Cc1cc(C)nc(-n2nc(C)cc2NC(=O)c2ccc(Br)o2)n1 ?
inactive

* * *

System: mevalonate kinase [Streptococcus pneumoniae D39]
Assay: pneumococcal mevalonate kinase activity blockers – biochemical, PK/LDH-coupled NADH absorbance, primary screen (AID 555)
Conditions: purified MK, PK/LDH-coupled NADH absorbance 340 nm; measured here: pilot screen replicates; at 10 µM; stronger effect = higher value
In all, about 65,000 compounds went through this assay and about 320 (0.49%) were called active. The sample holds actives, similar compounds and a random draw of the others, so the mix is not that of the screen.
Listed below: inhibition values for each entry.
// note: answer is a bare numeric in %

compound | unit-of-measure | inhibition
CCCCc1nccn1CCn1ccnc1CCCC | % | 0

Okay, next one:
# query: inhibition of entry CSc1cccc(NC(=O)C2CCCN2S(=O)(=O)c2ccc3c(c2)CCC(=O)N3)c1 (stereo unspecified)
2.5

* * *

Tested on: mevalonate kinase [Streptococcus pneumoniae D39]
Test: pneumococcal mevalonate kinase activity blockers – biochemical, PK/LDH-coupled NADH absorbance, primary screen (AID 555)
Conditions: purified MK, PK/LDH-coupled NADH absorbance 340 nm; at 10 µM; stronger effect = higher value
About 320 (0.49%) of roughly 65,000 compounds were called active. What follows is part of a selection rich in actives, with near analogues and random picks from the rest.
Mark false (0) for inhibition values under 3%, and true (1) for everything at or above.

Completed entries (count: 4):
molecule | label-class
O=C(CN1CCN(S(=O)(=O)c2ccc(F)cc2)CC1)Nc1ccccc1F | false (0)
O=C(C1CCN(CC2CCCCC2)CC1)N1CCCC1 | true (1)
Cc1cc(N2C(=O)C(=O)/C(=C(/O)c3ccccc3)C2c2cccc(Br)c2)no1 (configuration not stated) | false (0)
O=C(c1cccs1)N(C(=O)c1cccs1)c1ccccn1 | true (1)

# bool: inhibition of CCOC(=O)C1(Cc2ccc(O)cc2)NC(c2ccccc2F)C2C(=O)N(C)C(=O)C21 (configuration not stated) >= 3%
false (0)

Now the molecule Cc1ccc2c(c1)c1ncnc(N3CCc4ccccc4C3)c1n2C
true (1)

* * *

System: mevalonate kinase [Streptococcus pneumoniae D39]
Test: pneumococcal mevalonate kinase activity blockers – biochemical, PK/LDH-coupled NADH absorbance, primary screen (AID 555)
Conditions: purified MK, PK/LDH-coupled NADH absorbance 340 nm; at 10 µM; stronger effect = higher value
Among all 65,000 compounds or so, about 320 (0.49%) were called active. The sample holds actives, similar compounds and a random draw of the others, so the mix is not that of the screen.
This section presents compounds with their documented inhibition values.

compound | inhibition
COC(=O)N1CN(C(=O)OC)CN(C(=O)OC)C1 | 11% (inactive)
O=C(CSc1nc2ccccc2o1)N1CCN(c2ccccc2)CC1 | 7% (inactive)
O=C(OCC(=O)N1CCCC1)c1ccco1 | 4% (inactive)
Oc1c(C(c2cccs2)N2CCN(c3ccc(F)cc3)CC2)sc2ncnn12 (stereo not drawn) | 11% (inactive)
Cc1ccc(S(=O)(=O)N2CCCC2CO)cc1 (stereo not drawn) | 3% (inactive)

Find the measured inhibition: item CCCS(=O)(=O)N1CCC(C(=O)NCCCN(C)Cc2ccccc2)CC1 , target or system mevalonate kinase [Streptococcus pneumoniae D39].
0% (inactive)

Now consider Cc1ccccc1-c1ccc(Nc2ccc(C(=O)N3CCOCC3)cc2)nn1 and answer again.
11% (inactive)
